Entries and their pKi values follow.
Biological target: human A2AR (Homo sapiens, UniProt P29274)
Sequence (P29274 whole entry): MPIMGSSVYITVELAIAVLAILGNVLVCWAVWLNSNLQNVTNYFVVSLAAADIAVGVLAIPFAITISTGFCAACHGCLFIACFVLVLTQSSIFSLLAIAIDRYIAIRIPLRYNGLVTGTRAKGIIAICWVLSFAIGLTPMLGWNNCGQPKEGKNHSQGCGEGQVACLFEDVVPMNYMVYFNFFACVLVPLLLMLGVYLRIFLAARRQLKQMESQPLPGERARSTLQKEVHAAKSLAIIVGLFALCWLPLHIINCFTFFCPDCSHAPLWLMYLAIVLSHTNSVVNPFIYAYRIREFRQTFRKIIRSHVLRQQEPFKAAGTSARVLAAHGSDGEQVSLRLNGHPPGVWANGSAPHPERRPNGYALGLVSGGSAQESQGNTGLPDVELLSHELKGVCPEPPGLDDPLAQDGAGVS
Experiment: In vitro radioligand binding assay with [3H]ZM241385 on membranes of CHO-K1 cells stably transfected with human A2AR
Details: Ki(hA2AR), in-house; mean ± standard deviation (n ≥ 3) or mean (n = 2, single values in brackets); Cheng-Prusoff
pKi: −log10 of the molar value.

[
  {
    "mol": "Nc1nc(-c2ccco2)c2cnn(Cc3cccc(OCCF)c3)c2n1",
    "target": "human A2AR (Homo sapiens, UniProt P29274)",
    "pKi": 8.35
  },
  {
    "mol": "Nc1nc(-c2ccco2)c2cnn(Cc3cccc(CCF)c3)c2n1",
    "target": "human A2AR (Homo sapiens, UniProt P29274)",
    "pKi": 8.79
  },
  {
    "mol": "Nc1nc(-c2ccco2)c2cnn(Cc3ccccc3)c2n1",
    "target": "human A2AR (Homo sapiens, UniProt P29274)",
    "pKi": 8.77
  },
  {
    "mol": "Nc1nc(-c2ccco2)c2cnn(C(=O)c3ccccc3F)c2n1",
    "target": "human A2AR (Homo sapiens, UniProt P29274)",
    "pKi": 6.55
  },
  {
    "mol": "Nc1nc(-c2ccco2)c2cnn(Cc3cc(F)cc(Br)c3)c2n1",
    "target": "human A2AR (Homo sapiens, UniProt P29274)",
    "pKi": 7.85
  },
  {
    "mol": "Nc1nc(-c2ccco2)c2cnn(Cc3ccc(Br)cc3F)c2n1",
    "target": "human A2AR (Homo sapiens, UniProt P29274)",
    "pKi": 9.03
  },
  {
    "mol": "Nc1nc(-c2ccco2)c2cnn(Cc3cccc(F)c3)c2n1",
    "target": "human A2AR (Homo sapiens, UniProt P29274)",
    "pKi": 8.44
  },
  {
    "mol": "Nc1nc(-c2ccco2)c2cnn(Cc3ccnc(F)c3)c2n1",
    "target": "human A2AR (Homo sapiens, UniProt P29274)",
    "pKi": 6.79
  },
  {
    "mol": "Nc1nc(-c2ccco2)c2cnn(Cc3cccc(OCCCF)c3)c2n1",
    "target": "human A2AR (Homo sapiens, UniProt P29274)",
    "pKi": 7.11
  },
  {
    "mol": "Nc1nc(-c2ccco2)c2cnn(Cc3cccnc3F)c2n1",
    "target": "human A2AR (Homo sapiens, UniProt P29274)",
    "pKi": 7.32
  },
  {
    "mol": "Nc1nc(-c2ccco2)c2cnn(Cc3ccccc3F)c2n1",
    "target": "human A2AR (Homo sapiens, UniProt P29274)",
    "pKi": 8.67
  },
  {
    "mol": "Nc1nc(-c2ccco2)c2cnn(Cc3c(F)cccc3Br)c2n1",
    "target": "human A2AR (Homo sapiens, UniProt P29274)",
    "pKi": 8.63
  },
  {
    "mol": "N#Cc1cccc(F)c1Cn1ncc2c(-c3ccco3)nc(N)nc21",
    "target": "human A2AR (Homo sapiens, UniProt P29274)",
    "pKi": 7.91
  },
  {
    "mol": "Nc1nc(-c2ccco2)c2cnn(Cc3ccc(F)cc3Br)c2n1",
    "target": "human A2AR (Homo sapiens, UniProt P29274)",
    "pKi": 7.47
  },
  {
    "mol": "N#Cc1cc(F)cc(Cn2ncc3c(-c4ccco4)nc(N)nc32)c1",
    "target": "human A2AR (Homo sapiens, UniProt P29274)",
    "pKi": 6.54
  },
  {
    "mol": "Nc1nc(-c2ccco2)c2cnn(CCc3ccccc3F)c2n1",
    "target": "human A2AR (Homo sapiens, UniProt P29274)",
    "pKi": 6.97
  }
]
